Some compounds, each annotated with its measured Bliss excess.
# Test system: ETK-1 (Biliary Tract Carcinoma)
# Protocol Description: Bliss excess, mean over the matrix (fraction); higher = more synergy

Incoming: What value of measured Bliss excess is listed for Cc1c2c(nn1C)CSCc1cc(n(C)n1)CSc1cc(c3ccccc3c1)OCCCc1c(C(=O)O)n(C)c3c-2c(Cl)ccc13 [AZD5991] + C[C@@H]1COCCN1C2=NC(=NC(=C2)C3(CC3)[S@](=N)(=O)C)C4=C5C=CNC5=NC=C4 [AZD6738] (first compound max 1 µM, 7x7, partner max 10 µM) ?
Outgoing: 0.0015

Incoming: What value of measured Bliss excess is listed for Cn1cnc2c(F)c(Nc3ccc(Br)cc3Cl)c(C(=O)NOCCO)cc21 [Selumetinib] + C=CCn1c(=O)c2cnc(Nc3ccc(N4CCN(C)CC4)cc3)nc2n1-c1cccc(C(C)(C)O)n1 [AZD1775] (first compound max 10 µM, partner max 1 µM) ?
Outgoing: -0.0128

Incoming: What value of measured Bliss excess is listed for COc1cccc(OCCCN)c1-c1cc(Nc2cnc(C#N)cn2)n[nH]1 [Prexasertib] + Cc1cc2ncnn2cc1Nc1ncc2c(n1)n(C1CCOCC1)c(=O)n2C [AZD7648] (first compound max 1 µM, 7x7, partner max 10 µM) ?
Outgoing: 0.059

Incoming: What value of measured Bliss excess is listed for CN(CCO)CC[C@H](CSc1ccccc1)Nc1ccc(S(=O)(=O)NC(=O)c2ccc(N3CCC([C@@H](O)c4ccccc4-c4ccc(Cl)cc4)CC3)cc2)cc1S(=O)(=O)C(F)(F)F [AZD4320] + Cc1cc2ncnn2cc1Nc1ncc2c(n1)n(C1CCOCC1)c(=O)n2C [AZD7648] (first compound max 1 µM, 7x7, partner max 10 µM) ?
Outgoing: -0.0639

====

Some molecules, each annotated with its measured combination Emax.
# System: BICR78 (Oral Cavity Carcinoma)
# Protocol Description: combination Emax (second highest fraction inhibited in the dose matrix, 72 h); higher = more inhibition; extreme values may be limits of the assay
The answer should be a number; do not append a unit.

{"Molecule": "C[C@@H]1COCCN1c1cc(C2([S@](C)(=N)=O)CC2)nc(-c2ccnc3[nH]ccc23)n1 [AZD6738] + O=C(c1cc(Cc2n[nH]c(=O)c3ccccc23)ccc1F)N1CCN(C(=O)C2CC2)CC1 [Olaparib] (first compound max 10 µM, 7x7, partner max 10 µM)", "combination Emax": 0.615}
{"Molecule": "CC1(C)CCC(CN2CCN(c3ccc(C(=O)NS(=O)(=O)c4ccc(NCC5CCOCC5)c([N+](=O)[O-])c4)c(Oc4cnc5[nH]ccc5c4)c3)CC2)=C(c2ccc(Cl)cc2)C1 [Venetoclax] + C[C@@H]1COCCN1C2=NC(=NC(=C2)C3(CC3)[S@](=N)(=O)C)C4=C5C=CNC5=NC=C4 [AZD6738] (first compound max 1 µM, 7x7, partner max 10 µM)", "combination Emax": 0.603}
{"Molecule": "C=CCn1c(=O)c2cnc(Nc3ccc(N4CCN(C)CC4)cc3)nc2n1-c1cccc(C(C)(C)O)n1 [AZD1775] + C1CN(CCC1(C(=O)N[C@@H](CCO)C2=CC=C(C=C2)Cl)N)C3=NC=NC4=C3C=CN4 [Capivasertib] (first compound max 3 µM, partner max 3 µM)", "combination Emax": 0.441}
{"Molecule": "CC1(C)CCC(CN2CCN(c3ccc(C(=O)NS(=O)(=O)c4ccc(NCC5CCOCC5)c([N+](=O)[O-])c4)c(Oc4cnc5[nH]ccc5c4)c3)CC2)=C(c2ccc(Cl)cc2)C1 [Venetoclax] + CN(C)CCCOc1ccc(-c2ccc3ncc4c(c3c2)n(C2CCOCC2)c(=O)n4C)cn1 [AZD0156] (first compound max 1 µM, 7x7, partner max 1 µM)", "combination Emax": 0.297}
{"Molecule": "CCN(CCO)CCCOc1ccc2c(Nc3cc(CC(=O)Nc4cccc(F)c4)[nH]n3)ncnc2c1 [AZD2811] + C[C@@H]1COCCN1C2=NC(=NC(=C2)C3(CC3)[S@](=N)(=O)C)C4=C5C=CNC5=NC=C4 [AZD6738] (first compound max 1 µM, 7x7, partner max 10 µM)", "combination Emax": 0.637}
{"Molecule": "N#Cc1cnc(Nc2cc(NC[C@H]3CNCCO3)c(C(F)(F)F)cn2)cn1 [SRA737] + O=c1[nH]cc(F)c(=O)[nH]1 [5-Fluorouracil] (first compound max 10 µM, 7x7, partner max 20 µM)", "combination Emax": 0.55}
{"Molecule": "COc1cccc(OCCCN)c1-c1cc(Nc2cnc(C#N)cn2)n[nH]1 [Prexasertib] + CCc1c2c(nc3ccc(O)cc13)-c1cc3c(c(=O)n1C2)COC(=O)[C@]3(O)CC [SN-38] (first compound max 1 µM, 7x7, partner max 0.3 µM)", "combination Emax": 0.845}
{"Molecule": "Cn1cnc2c(F)c(Nc3ccc(Br)cc3Cl)c(C(=O)NOCCO)cc21 [Selumetinib] + CC(C)n1c(=O)n(C)c2cnc3cc(F)c(-c4ccc(OCCCN5CCCCC5)nc4)cc3c21 [AZD1390] (first compound max 10 µM, 7x7, partner max 0.3 µM)", "combination Emax": 0.3}

Incoming: Kindly state the measured combination Emax obtained for COc1cccc(OCCCN)c1-c1cc(Nc2cnc(C#N)cn2)n[nH]1 [Prexasertib] + C[C@@H]1COCCN1C2=NC(=NC(=C2)C3(CC3)[S@](=N)(=O)C)C4=C5C=CNC5=NC=C4 [AZD6738] (first compound max 1 µM, 7x7, partner max 10 µM) with BICR78 (Oral Cavity Carcinoma).
Outgoing: 0.645

Incoming: Kindly state the measured combination Emax obtained for C[C@@H](Nc1cc(F)cc(F)c1)c1cc(C(=O)N(C)C)cc2c(=O)cc(N3CCOCC3)oc12 [AZD8186] + C1CN(CCC1(C(=O)N[C@@H](CCO)C2=CC=C(C=C2)Cl)N)C3=NC=NC4=C3C=CN4 [AZD5363] (first compound max 10 µM, 7x7, partner max 10 µM) with BICR78 (Oral Cavity Carcinoma).
Outgoing: 0.394

Incoming: Kindly state the measured combination Emax obtained for NC1(C(=O)N[C@@H](CCO)c2ccc(Cl)cc2)CCN(c2ncnc3[nH]ccc23)CC1 [Capivasertib] + CCN(CCO)CCCOc1ccc2c(Nc3cc(CC(=O)Nc4cccc(F)c4)[nH]n3)ncnc2c1 [AZD2811] (first compound max 10 µM, 7x7, partner max 1 µM) with BICR78 (Oral Cavity Carcinoma).
Outgoing: 0.392

Incoming: Kindly state the measured combination Emax obtained for CN(CCO)CC[C@H](CSc1ccccc1)Nc1ccc(S(=O)(=O)NC(=O)c2ccc(N3CCC([C@@H](O)c4ccccc4-c4ccc(Cl)cc4)CC3)cc2)cc1S(=O)(=O)C(F)(F)F [AZD4320] + CCN(CCO)CCCOc1ccc2c(Nc3cc(CC(=O)Nc4cccc(F)c4)[nH]n3)ncnc2c1 [AZD2811] (first compound max 1 µM, 7x7, partner max 1 µM) with BICR78 (Oral Cavity Carcinoma).
Outgoing: 0.313

Incoming: Kindly state the measured combination Emax obtained for CC1(C)CCC(CN2CCN(c3ccc(C(=O)NS(=O)(=O)c4ccc(NCC5CCOCC5)c([N+](=O)[O-])c4)c(Oc4cnc5[nH]ccc5c4)c3)CC2)=C(c2ccc(Cl)cc2)C1 [Venetoclax] + CCN(CCO)CCCOc1ccc2c(Nc3cc(CC(=O)Nc4cccc(F)c4)[nH]n3)ncnc2c1 [AZD2811] (first compound max 1 µM, 7x7, partner max 1 µM) with BICR78 (Oral Cavity Carcinoma).
Outgoing: 0.245

====

# System: EKVX (Non-Small Cell Lung Carcinoma)
# Protocol Description: Bliss excess, mean over the matrix (fraction); higher = more synergy
Endpoint: Bliss excess

// worked examples, Bliss excess included
{"Molecule": "COc1cccc2c1C(=O)c1c(O)c3c(c(O)c1C2=O)C[C@@](O)(C(=O)CO)C[C@@H]3O[C@H]1C[C@H](N)[C@H](O)[C@H](C)O1 [Doxorubicin] + Cc1cc2ncnn2cc1Nc1ncc2c(n1)n(C1CCOCC1)c(=O)n2C [AZD7648] (first compound max 1 µM, 7x7, partner max 10 µM)", "Bliss excess": 0.0083}
{"Molecule": "COc1cccc(OCCCN)c1-c1cc(Nc2cnc(C#N)cn2)n[nH]1 [Prexasertib] + CCc1c2c(nc3ccc(O)cc13)-c1cc3c(c(=O)n1C2)COC(=O)[C@]3(O)CC [SN-38] (first compound max 1 µM, 7x7, partner max 0.3 µM)", "Bliss excess": -0.0347}
{"Molecule": "CN(C)CCCOc1ccc(-c2ccc3ncc4c(c3c2)n(C2CCOCC2)c(=O)n4C)cn1 [AZD0156] + C=CCn1c(=O)c2cnc(Nc3ccc(N4CCN(C)CC4)cc3)nc2n1-c1cccc(C(C)(C)O)n1 [AZD1775] (first compound max 1 µM, partner max 1 µM)", "Bliss excess": -0.0358}
{"Molecule": "CCN(CCO)CCCOc1ccc2c(Nc3cc(CC(=O)Nc4cccc(F)c4)[nH]n3)ncnc2c1 [AZD2811] + O=C(c1cc(Cc2n[nH]c(=O)c3ccccc23)ccc1F)N1CCN(C(=O)C2CC2)CC1 [Olaparib] (first compound max 1 µM, 7x7, partner max 10 µM)", "Bliss excess": -0.0303}
{"Molecule": "CCN(CCO)CCCOc1ccc2c(Nc3cc(CC(=O)Nc4cccc(F)c4)[nH]n3)ncnc2c1 [AZD2811] + C=CCn1c(=O)c2cnc(Nc3ccc(N4CCN(C)CC4)cc3)nc2n1-c1cccc(C(C)(C)O)n1 [AZD1775] (first compound max 1 µM, partner max 1 µM)", "Bliss excess": -0.0599}
{"Molecule": "Cc1c2c(nn1C)CSCc1cc(n(C)n1)CSc1cc(c3ccccc3c1)OCCCc1c(C(=O)O)n(C)c3c-2c(Cl)ccc13 [AZD5991] + Cn1cnc2c(F)c(Nc3ccc(Br)cc3Cl)c(C(=O)NOCCO)cc21 [Selumetinib] (first compound max 1 µM, 7x7, partner max 3 µM)", "Bliss excess": -0.0474}
{"Molecule": "CN(CCO)CC[C@H](CSc1ccccc1)Nc1ccc(S(=O)(=O)NC(=O)c2ccc(N3CCC([C@@H](O)c4ccccc4-c4ccc(Cl)cc4)CC3)cc2)cc1S(=O)(=O)C(F)(F)F [AZD4320] + C=CCn1c(=O)c2cnc(Nc3ccc(N4CCN(C)CC4)cc3)nc2n1-c1cccc(C(C)(C)O)n1 [AZD1775] (first compound max 1 µM, partner max 1 µM)", "Bliss excess": -0.0382}

Let us examine a further case.
Incoming: Kindly state the measured Bliss excess obtained for Cc1c2c(nn1C)CSCc1cc(n(C)n1)CSc1cc(c3ccccc3c1)OCCCc1c(C(=O)O)n(C)c3c-2c(Cl)ccc13 [AZD5991] + C[C@@H]1COCCN1C2=NC(=NC(=C2)C3(CC3)[S@](=N)(=O)C)C4=C5C=CNC5=NC=C4 [AZD6738] (first compound max 1 µM, 7x7, partner max 10 µM) with EKVX (Non-Small Cell Lung Carcinoma).
Outgoing: 0.0337
